Tested on: T-47D breast
Assay: NCI-60 one-dose screen, 48 h
Conditions: 10 µM
Compounds without any hit were thinned out: in the full panel of roughly 83,000, 20% have a hit. The source made the active and inactive calls. The calls were made as follows: active = growth percent below 10; inactive = the rest.
Outcomes: 1 (yes) (active), 0 (no) (inactive)

Compound Structure: COc1ccc(/C(=C/c2cc(OC)c(OC)cc2[N+](=O)[O-])C(=O)O)cc1
Assigned Class: 0 (no)

Compound Structure: COc1cccc(C(=O)NNc2nc(N3CCOCC3)nc(N3CCN(C(c4ccccc4)c4ccccc4)CC3)n2)c1
Assigned Class: 0 (no)

Compound Structure: COc1cc(-c2nc3ccccc3[nH]2)ccc1OCC(=O)N=Nc1c(O)[nH]c2ccccc12
Assigned Class: 0 (no)

Compound Structure: FC(F)(F)c1ccc(-c2ncc(-c3ccc(C(F)(F)F)cc3)c(NCc3cc(C(F)(F)F)cc(C(F)(F)F)c3)n2)cc1
Assigned Class: 0 (no)

Compound Structure: Cc1cc(/C=C2\SC(=Nc3ccccc3)N(C3CCCC3)C2=O)c(C)n1-c1ccc(Cl)cc1
Assigned Class: 1 (yes)

Compound Structure: COc1cc(-c2nc(-c3nnc(-c4cccnc4)o3)c3ccccn23)cc(OC)c1OC
Assigned Class: 0 (no)

Compound Structure: COc1ccc2nc(/C=C/c3ccc(N(C)C)cc3)sc2c1
Assigned Class: 0 (no)

Compound Structure: COc1ccc(/C(CS(=O)(=O)c2ccccc2)=N\O)cc1
Assigned Class: 0 (no)

Compound Structure: O=C(CCc1ccccc1)N1CCN(C(=O)CCc2ccccc2)CC1
Assigned Class: 0 (no)

Compound Structure: C[C@@H]1N=C(c2ccc(Br)cc2)Nc2nc3ccccn3c2C1=O
Assigned Class: 0 (no)

Compound Structure: Cn1c(N)c(N=Cc2ccccc2)c(=O)n(C)c1=O
Assigned Class: 0 (no)

Compound Structure: COc1cc(Cn2c(-c3ccccc3)cc3c2-c2oncc2CC3)cc(OC)c1
Assigned Class: 0 (no)

Compound Structure: CC(C)(C)c1ccc(OCCCCCCN2CCNCC2)cc1
Assigned Class: 0 (no)

Compound Structure: Cc1cc(Cl)ccc1Nc1nc(C(F)(F)F)ccc1C(=O)N/N=C/c1ccccc1Cl
Assigned Class: 0 (no)

Compound Structure: C/C=C\COc1cc(C)c(Cl)cc1Cl
Assigned Class: 0 (no)

Compound Structure: COc1ccc2c(c1)/C(=C/c1cc(OC)c(OC)c(OC)c1)C(=O)N2C
Assigned Class: 1 (yes)

Compound Structure: COC(=O)c1ccc(Cn2ccc(=O)[nH]c2=O)cc1
Assigned Class: 0 (no)

Compound Structure: CCOC(=O)C(=O)Cc1cccnn1
Assigned Class: 0 (no)

Compound Structure: CC(=O)OCC(COC(C)=O)(COC(C)=O)COC(C)=O
Assigned Class: 1 (yes)

Compound Structure: COc1ccc(-c2oncc2-c2cc(OC)c3c(c2)OCO3)cc1
Assigned Class: 0 (no)

Compound Structure: O=c1ccc2nc(-c3ccccc3)nn(-c3ccccc3)c-2c1
Assigned Class: 1 (yes)

Compound Structure: CCN(CC)CCOC(=O)c1ccc(N=Nc2ccc(O)c(OC)c2)cc1
Assigned Class: 0 (no)

* * *

Test system: OVCAR-3 ovarian
Assay: NCI-60 one-dose screen, 48 h (100 = growth as untreated, 0 = no growth, -100 = all killed)
Conditions: 10 µM
This is part of a sample that, as a whole, favours compounds with a hit. Of some 83,000 tested, about 20% had one in any assay.
Parameter: growth. Scope: all listed entries.

Molecule: O=C(O)CN1C(=O)C=CC1=O
Assay System: OVCAR-3 ovarian
growth / %: 104

Molecule: COc1ccc(C(=O)/C=C/c2cc(-c3ccc(OC)c(OC)c3)n[nH]2)cc1OC
Assay System: OVCAR-3 ovarian
growth / %: -42

Molecule: C=CCn1ccc(=O)nc1SC
Assay System: OVCAR-3 ovarian
growth / %: 113

Molecule: COc1ccc(-c2[nH]ncc2-c2cc(OC)c(OC)c(OC)c2)cc1
Assay System: OVCAR-3 ovarian
growth / %: -17.5

Molecule: COc1cc(-c2nc3ccc(C)cc3[nH]2)ccc1OCC(=O)N=Nc1c(O)[nH]c2ccccc12
Assay System: OVCAR-3 ovarian
growth / %: -94.5

Molecule: Nc1ccc2c(c1)Cc1cc(N)c(Cl)cc1-2
Assay System: OVCAR-3 ovarian
growth / %: 124

Molecule: COc1ccc(-c2nc(-c3nc4ccc(OC)cc4[nH]3)c3ccccn23)cc1
Assay System: OVCAR-3 ovarian
growth / %: 81.8

Molecule: c1ccc(C2CCCCC2)c(OCCCCCN2CCNCC2)c1
Assay System: OVCAR-3 ovarian
growth / %: 76.9

Molecule: Cc1cc(C(C)(C)CC(C)(C)C)ccc1OCCOCC[N+](C)(C)Cc1ccccc1
Assay System: OVCAR-3 ovarian
growth / %: 12.9

Molecule: Cc1ccc(NS(=O)(=O)c2ccccc2)c(NS(=O)(=O)c2ccccc2)c1
Assay System: OVCAR-3 ovarian
growth / %: 98

Molecule: COc1cccc(C2(C)Nc3ccccc3-c3nc4ccccc4n32)c1 (configuration not stated)
Assay System: OVCAR-3 ovarian
growth / %: 112

Molecule: COc1cc(-c2nc(-c3nnc(-c4cccnc4)o3)c3ccccn23)cc(OC)c1OC
Assay System: OVCAR-3 ovarian
growth / %: 129

Molecule: CCOC(=O)c1cc2c(n1Cc1cccc(OC)c1)-c1oncc1CC2
Assay System: OVCAR-3 ovarian
growth / %: -16.4

Molecule: CC(C)(C)c1ccc(OCCCCCCN2CCNCC2)cc1
Assay System: OVCAR-3 ovarian
growth / %: 82.1

Molecule: CCOC(=O)[C@@H](Cc1ccccc1)NC(=O)c1[nH]c2ccc(Cl)cc2c(=O)c1C
Assay System: OVCAR-3 ovarian
growth / %: 111

Molecule: CCOC(=O)CNC(=O)Nc1ccc(Oc2ccc(NC(=O)NCC(=O)OCC)cc2)cc1
Assay System: OVCAR-3 ovarian
growth / %: 107

Molecule: COc1cc(/C=C/C(=O)c2cc(-c3ccc(C(F)(F)F)cc3)ccc2O)cc(OC)c1OC
Assay System: OVCAR-3 ovarian
growth / %: 74.1

Molecule: O=C(CSc1nnc(-c2ccc(Cl)cc2)o1)c1ccccc1
Assay System: OVCAR-3 ovarian
growth / %: 102

Molecule: NC1CCC(Nc2nc(NCc3cc(Cl)ccc3O)c3ncn(C4CCCC4)c3n2)CC1 (configuration not stated)
Assay System: OVCAR-3 ovarian
growth / %: -20.2

Molecule: CCCCCCCOc1cccc(/C=C2/C(=O)N=C3SCCCN32)c1
Assay System: OVCAR-3 ovarian
growth / %: 50.9

Molecule: O=S(=O)(NCCO)c1ccc(OCCOc2ccc(S(=O)(=O)NCCO)cc2)cc1
Assay System: OVCAR-3 ovarian
growth / %: 111

Molecule: COc1ccc(S(=O)(=O)Nc2ccc(OCc3nnc(-c4ccc(Cl)cc4)o3)c(F)c2)cc1
Assay System: OVCAR-3 ovarian
growth / %: 71.8
